# TESTED_TARGET: Siglec-2 Fc chimeras (Homo sapiens, UniProt P20273)
# Sequence (P20273 with tags, fused parts or gaps limits assumed): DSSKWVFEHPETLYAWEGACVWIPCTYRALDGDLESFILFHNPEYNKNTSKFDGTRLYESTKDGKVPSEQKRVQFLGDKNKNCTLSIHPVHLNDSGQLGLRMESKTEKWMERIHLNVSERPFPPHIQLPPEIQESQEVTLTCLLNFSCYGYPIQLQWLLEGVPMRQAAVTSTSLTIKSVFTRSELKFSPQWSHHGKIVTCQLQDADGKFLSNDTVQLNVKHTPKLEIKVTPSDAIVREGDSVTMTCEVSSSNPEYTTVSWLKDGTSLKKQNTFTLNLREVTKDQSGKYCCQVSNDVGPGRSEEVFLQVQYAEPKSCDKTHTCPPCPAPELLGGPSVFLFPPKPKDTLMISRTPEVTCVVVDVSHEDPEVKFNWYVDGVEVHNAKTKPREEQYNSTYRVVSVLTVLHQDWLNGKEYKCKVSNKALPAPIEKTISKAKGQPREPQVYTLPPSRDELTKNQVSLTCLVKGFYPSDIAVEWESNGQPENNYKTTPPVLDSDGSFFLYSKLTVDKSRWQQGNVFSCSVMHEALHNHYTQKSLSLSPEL
MEASUREMENT_NAME: pKd
// returns pKd (minus log10 of molar concentration), number only

COMPOUND	TESTED_TARGET	pKd
COC1(C(=O)O)CC(O)C(NC(C)=O)C(C(O)C(O)CNC(=O)c2ccc(-c3ccccc3)cc2)O1 (stereo not shown) [compound 2, 9-BPC-Neu5Acα2Me, reference compound]	Siglec-2 Fc chimeras (Homo sapiens, UniProt P20273)	5.36
CC(=O)N[C@@H]1[C@@H](NC(=O)c2cccc([N+](=O)[O-])c2)[C@H](O)[C@](OCc2cn(CC(=O)O)nn2)(C(=O)O)O[C@H]1[C@H](O)[C@H](O)CNC(=O)c1ccc(-c2ccccc2)cc1	Siglec-2 Fc chimeras (Homo sapiens, UniProt P20273)	6.74
COc1cccc(C(=O)N[C@@H]2[C@@H](NC(C)=O)[C@H]([C@H](O)[C@H](O)CNC(=O)c3ccc(-c4ccccc4)cc3)O[C@@](OCc3cn(CC(=O)O)nn3)(C(=O)O)[C@H]2O)c1	Siglec-2 Fc chimeras (Homo sapiens, UniProt P20273)	6.76

Attention now shifts to the item below.
Field request: pKd | item: COC1(C(=O)O)CC(NC(=O)c2cccc([N+](=O)[O-])c2)C(NC(C)=O)C(C(O)C(O)CNC(=O)c2ccc(-c3ccccc3)cc2)O1 (stereo not shown)
6.18
